assay-text: Oral bioavailability in CD-1 mouse at 10 mg/kg
Assay type: ADME, organism-based
condition-notes: in vivo
reported-endpoint: bioavailability

I would be grateful if you could share the reported bioavailability for `CN(c1ccccc1)c1ccc2c(c1)CCC[C@H]2CNc1cnccc1C(=O)O` .
30%

----------
assay-text: Volume of distribution in CD-1 mouse at 5 mg/kg, iv
Format: ADME, organism-based
condition-notes: in vivo
reported-endpoint: Vd (L/kg)
Numbers only here, please. The scale is L/kg.

I would be grateful if you could share the reported Vd for `CN(c1ccccc1)c1ccc2c(c1)CCC[C@H]2CNc1cnccc1C(=O)O` .
0.675

----------
assay-text: Systemic clearance in CD-1 mouse at 5 mg/kg, iv
Assay type: ADME, organism-based
condition-notes: in vivo
reported-endpoint: clearance (mL/min/kg)
Numbers only here, please. The scale is mL/min/kg.

I would be grateful if you could share the reported clearance for `CN(c1ccccc1)c1ccc2c(c1)CCC[C@H]2CNc1cnccc1C(=O)O` .
6.9

----------
test-system: Lysine-specific demethylase 4C (Homo sapiens, UniProt Q9H3R0)
assay-text: Inhibition of full-length KDM4C (unknown origin) expressed in human KYSE-150 cells assessed as increase in H3K36me3 level after 24 hrs by HTRF assay
reported-endpoint: EC50

Before answering, review these 2 worked examples.
[[record]]
smiles_repr = "O=C(O)c1ccncc1NC[C@@H]1CCCc2cc(Sc3ccccc3)ccc21"
obs_value = "19 nM"

[[record]]
smiles_repr = "COc1ccc2c(c1)CCC[C@H]2CNc1cnccc1C(=O)O"
obs_value = "560 nM"


I would be grateful if you could share the reported EC50 for `CN(c1ccccc1)c1ccc2c(c1)CCC[C@H]2CNc1cnccc1C(=O)O` .
1.3 nM

----------
test-system: Lysine-specific demethylase 4C (Homo sapiens)
Sequence (Q9H3R0 whole entry): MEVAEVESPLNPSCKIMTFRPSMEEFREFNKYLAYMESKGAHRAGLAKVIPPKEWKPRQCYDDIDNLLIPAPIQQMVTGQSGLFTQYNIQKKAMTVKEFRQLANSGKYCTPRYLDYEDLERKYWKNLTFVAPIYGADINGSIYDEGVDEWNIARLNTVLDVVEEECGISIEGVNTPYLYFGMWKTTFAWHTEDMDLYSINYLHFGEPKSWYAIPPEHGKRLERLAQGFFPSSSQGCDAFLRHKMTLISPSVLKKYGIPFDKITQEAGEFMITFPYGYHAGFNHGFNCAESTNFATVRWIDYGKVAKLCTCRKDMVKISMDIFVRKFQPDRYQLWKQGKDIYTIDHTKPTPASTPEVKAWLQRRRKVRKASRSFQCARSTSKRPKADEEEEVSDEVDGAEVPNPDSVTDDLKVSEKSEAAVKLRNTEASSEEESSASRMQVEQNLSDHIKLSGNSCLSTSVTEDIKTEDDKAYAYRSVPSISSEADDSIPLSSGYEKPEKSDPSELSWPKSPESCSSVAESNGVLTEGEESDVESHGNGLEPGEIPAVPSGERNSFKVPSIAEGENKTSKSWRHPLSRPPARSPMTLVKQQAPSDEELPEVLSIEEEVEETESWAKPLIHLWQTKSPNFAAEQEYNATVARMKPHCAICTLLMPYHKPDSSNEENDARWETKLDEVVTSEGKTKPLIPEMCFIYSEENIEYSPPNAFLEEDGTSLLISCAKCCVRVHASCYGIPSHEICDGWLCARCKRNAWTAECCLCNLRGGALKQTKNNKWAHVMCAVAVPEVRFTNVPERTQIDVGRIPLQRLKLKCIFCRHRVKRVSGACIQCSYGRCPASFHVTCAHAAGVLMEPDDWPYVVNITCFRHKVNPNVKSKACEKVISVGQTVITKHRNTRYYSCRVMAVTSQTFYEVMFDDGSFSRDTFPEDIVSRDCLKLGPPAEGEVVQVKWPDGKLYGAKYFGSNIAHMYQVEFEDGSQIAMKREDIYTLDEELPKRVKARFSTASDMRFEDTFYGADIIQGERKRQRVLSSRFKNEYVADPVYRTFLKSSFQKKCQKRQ
assay-text: Inhibition of KDM4C (unknown origin) using biotinylated H3K9me3 peptide and alpha-ketoglutarate as substrate pretreated for 1 hr followed by substrate addition measured after 20 mins in presence of 0.2 mg/ml BSA by LANCE TR-FRET assay
reported-endpoint: pIC50
Bear in mind: pIC50 is minus log10 of a mol/L concentration; give just that figure.

[[record]]
compound = "O=C(O)c1ccncc1NC[C@@H]1CCCc2cc(Sc3ccccc3)ccc21"
obs_value = 7.32


Give pIC50 (Lysine-specific demethylase 4C (Homo sapiens)) of the following compound: `COc1ccc2c(c1)CCC[C@H]2CNc1cnccc1C(=O)O`
8.22

Give pIC50 (Lysine-specific demethylase 4C (Homo sapiens)) of the following compound: `O=C(O)c1ccncc1NC[C@@H]1CCCc2ccccc21`
8.10

Give pIC50 (Lysine-specific demethylase 4C (Homo sapiens)) of the following compound: O=C(O)c1ccncc1NCC1CCCc2ccccc21 (stereo not given)
7.92
